# experimentalProtocol: Rat PK evaluation
# Type: in vivo
# protocolConditions: rat, plasma; SD rats, PO 5 mg/kg, n = 3; read-out: tz1/2 po (terminal elimination half-life) (converted)
reportedProperty: half-life (h)

Recorded half-life, per entry:
Identify measured half-life corresponding to COc1cc2nccc(Oc3ccc(NC(=O)c4nn(C5CC5)cc(-c5ccc(F)cc5)c4=O)cn3)c2cc1OC 12.7

Indicate its recorded half-life; the compound in question is COc1cc2nccc(Oc3ccc(NC(=O)c4nn(C(C)C)cc(-c5ccc(F)cc5)c4=O)nc3)c2cc1OC 20.5

Indicate the recorded half-life value for this compound: COc1cc2nccc(Oc3ccc(NC(=O)c4cn(C(C)C)nc(-c5ccc(F)cc5)c4=O)nc3)c2cc1OC 13.7

Write down half-life measured for item COc1cc2nccc(Oc3cnc(NC(=O)c4cn(C(C)C)nc(-c5ccc(F)cc5)c4=O)nc3)c2cc1OC 5.67

Look up and report measured half-life for this entry: COc1cc2nccc(Oc3cnc(NC(=O)c4nn(C5CC5)cc(-c5ccc(F)cc5)c4=O)nc3)c2cc1OC 4.73

I: COc1cc2nccc(Oc3cnc(NC(=O)c4cn(C5CC5)cc(-c5ccc(F)cc5)c4=O)nc3)c2cc1OC
II: COc1cc2nccc(Oc3ccc(NC(=O)c4cn(C(C)C)cc(-c5ccc(F)cc5)c4=O)nc3)c2cc1OC
III: COc1cc2nccc(Oc3ccc(NC(=O)c4nn(C5CC5)cc(-c5ccc(F)cc5)c4=O)nc3)c2cc1OC
Arrange these 3 compounds in increasing order of half-life. Answer format: list of labels, ordered as asked. I, II, III

----------
# experimentalProtocol: Rat PK evaluation
# Assay type: in vivo
# protocolConditions: rat, plasma; SD rats, PO 5 mg/kg, n = 3, median; read-out: Tmax po (time to peak plasma concentration)
reportedProperty: Tmax (h)

Specify reported Tmax for the compound shown: COc1cc2nccc(Oc3ncc(NC(=O)c4nn(C5CC5)cc(-c5ccc(F)cc5)c4=O)cn3)c2cc1OC [Compound 37] 4

Complete the entry with Tmax for COc1cc2nccc(Oc3cnc(NC(=O)c4nn(C5CC5)cc(-c5ccc(F)cc5)c4=O)nc3)c2cc1OC [Compound 33] 2

Look up and report measured Tmax for this entry: COc1cc2nccc(Oc3ncc(NC(=O)c4cn(C(C)C)nc(-c5ccc(F)cc5)c4=O)cn3)c2cc1OC [Compound 40] 4

A: COc1cc2nccc(Oc3ncc(NC(=O)c4nn(C(C)C)cc(-c5ccc(F)cc5)c4=O)cn3)c2cc1OC [Compound 34]
B: COc1cc2nccc(Oc3cnc(NC(=O)c4cn(C(C)C)nc(-c5ccc(F)cc5)c4=O)nc3)c2cc1OC [Compound 39]
C: COc1cc2nccc(Oc3cnc(NC(=O)c4cn(C(C)C)cc(-c5ccc(F)cc5)c4=O)nc3)c2cc1OC [Compound 20]
Hello, I need these entries ordered by Tmax, highest reading first. Thanks! // list labels; follow requested order C, A, B

----------
Overview of reported pIC50 across a group of compounds:
# testTarget: H1299 cell pMer (Homo sapiens, UniProt Q12866)
# Construct: The H1299 cells were inoculated in a 6-well plate; endogenous in cells
# Sequence (Q12866 21-999): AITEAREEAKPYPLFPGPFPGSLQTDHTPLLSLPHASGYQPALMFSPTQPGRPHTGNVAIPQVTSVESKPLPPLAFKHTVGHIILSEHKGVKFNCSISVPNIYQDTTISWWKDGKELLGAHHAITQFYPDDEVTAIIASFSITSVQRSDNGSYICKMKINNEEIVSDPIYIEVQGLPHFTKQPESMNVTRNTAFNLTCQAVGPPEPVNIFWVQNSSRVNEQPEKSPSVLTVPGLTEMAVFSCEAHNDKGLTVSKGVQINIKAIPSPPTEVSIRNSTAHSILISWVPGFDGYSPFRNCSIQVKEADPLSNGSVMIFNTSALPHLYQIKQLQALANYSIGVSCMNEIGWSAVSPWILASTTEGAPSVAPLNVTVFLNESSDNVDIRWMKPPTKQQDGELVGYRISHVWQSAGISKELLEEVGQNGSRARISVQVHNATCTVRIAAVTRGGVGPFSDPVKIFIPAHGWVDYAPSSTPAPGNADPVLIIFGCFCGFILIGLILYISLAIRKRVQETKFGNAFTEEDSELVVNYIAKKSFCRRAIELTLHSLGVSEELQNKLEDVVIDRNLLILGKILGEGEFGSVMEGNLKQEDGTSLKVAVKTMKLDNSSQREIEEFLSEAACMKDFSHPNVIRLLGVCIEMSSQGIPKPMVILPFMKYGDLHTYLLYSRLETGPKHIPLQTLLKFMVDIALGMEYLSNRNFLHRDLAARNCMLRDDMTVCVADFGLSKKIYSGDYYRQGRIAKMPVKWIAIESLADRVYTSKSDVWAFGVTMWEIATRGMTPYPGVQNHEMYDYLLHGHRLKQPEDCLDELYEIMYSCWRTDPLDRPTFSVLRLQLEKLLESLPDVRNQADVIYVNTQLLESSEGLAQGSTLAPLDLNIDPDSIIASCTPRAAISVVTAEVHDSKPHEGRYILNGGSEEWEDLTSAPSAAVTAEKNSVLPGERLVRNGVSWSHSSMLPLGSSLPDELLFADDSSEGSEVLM
# experimentalProtocol: Inhibitory activity on the cell pMer (Western Blot)
# protocolConditions: H1299 cells, compound 0.35, 1.1, 3.3, 10 nM, Human MerMab 200 ng/mL
pIC50: −log10 of the molar value.

Fill in pIC50 for record COc1cc2nccc(Oc3cnc(NC(=O)c4nn(C5CC5)cc(-c5ccc(F)cc5)c4=O)nc3)c2cc1OC > 8.96

Entry COc1cc2nccc(Oc3cnc(NC(=O)c4cn(C5CC5)nc(-c5ccc(F)cc5)c4=O)nc3)c2cc1OC needs its pIC50 filled in; supply it. > 8.96

Fill in reported pIC50 for this entry: COc1cc2nccc(Oc3ccc(NC(=O)c4nn(C(C)C)cc(-c5ccc(F)cc5)c4=O)cn3)c2cc1OC > 8.96

Entry COc1cc2nccc(Oc3ccc(NC(=O)c4cn(C5CC5)nc(-c5ccc(F)cc5)c4=O)nc3)c2cc1OC needs its pIC50 filled in; supply it. > 8.96

# return recorded pIC50 for entry COc1cc2nccc(Oc3ccc(NC(=O)c4nn(C5CC5)cc(-c5ccc(F)cc5)c4=O)cn3)c2cc1OC > 9.46

Determine from records and report pIC50 for COc1cc2nccc(Oc3ccc(NC(=O)c4cn(C5CC5)nc(-c5ccc(F)cc5)c4=O)cn3)c2cc1OC > 8.96
